Tested on: HT29
PROTOCOL_DETAILS: Cytotoxicity in vitro in the presence and absence of elastase (MTT assay)
Format: cell-based
RUN_PARAMETERS: HT29 cells; with 10 nM elastase (NE); 72 h incubation; read-out: IC50 with neutrophil elastase
pIC50: −log10 of the molar value. Starred links: 1 amine or outer side, 2 acyl side, 3 side chain; linkers in the order of their positions; H or OH if unused. Non-standard residues stand in square brackets, D forms with d. Residues, ends and D or L forms follow the SMILES beside them. Groups on a side chain read outwards from the residue. *: point of attachment. Camptothecin(7-Et) = CCc1c2c(nc3ccccc13)-c1cc3c(c(=O)n1C2)COC(=O)[C@@]3(CC)O*; EuK = O=C(O)CC[C@H](NC(=O)N[C@@H](CCCCN*)C(=O)O)C(=O)O; PEG3 = NCCOCCOCCOCCC(=O)O; CO = O=C([*:1])[*:2]
METRIC: pIC50

Query string: // query pIC50 value for entry CCc1c2c(nc3ccccc13)-c1cc3c(c(=O)n1C2)COC(=O)[C@@]3(CC)OC(=O)[C@@H](NC(=O)[C@@H]1CCCN1C(=O)[C@H](CC(=O)O)NC(=O)CCOCCOCCOCCNC(=O)[C@H](CCCCNC(=O)CCOCCOCCOCCNC(=O)NCCCC[C@H](NC(=O)N[C@@H](CCC(=O)O)C(=O)O)C(=O)O)NC(=O)CCOCCOCCOCCNC(=O)NCCCC[C@H](NC(=O)N[C@@H](CCC(=O)O)C(=O)O)C(=O)O)C(C)C [Compound 7] ({EuK-CO-PEG3}-K([PEG3-CO-EuK])[PEG3]DPV-{Camptothecin(7-Et)})
Result string: 7.00 to 8.00

----------
PROTOCOL_DETAILS: Pharmacokinetics in rat after intravenous administration
Format: in vivo
RUN_PARAMETERS: plasma, male rats, intravenous bolus 0.5 mg/kg
Please provide measured half-life for the entries that follow.

Query string: // query half-life value for entry CCCNC(=O)Nc1cccc(S(=O)(=O)Nc2cccc([C@@H](CC(=O)O)NC(=O)Nc3ccc(NC(=O)NCCOCCOCCOCCC(=O)N[C@@H](CC(=O)O)C(=O)N4CCC[C@H]4C(=O)N[C@H](C(=O)O[C@@H](c4ccccc4)[C@@H](C)NC(=O)[C@H](C)C(OC)[C@@H]4CCCN4C(=O)CC(OC)[C@H]([C@@H](C)CC)N(C)C(=O)[C@@H](NC(=O)[C@@H](NC)C(C)C)C(C)C)C(C)C)cc3)c2)c1 (stereo partly drawn) [Compound 13]
Result string: 1 to 5 h

Query string: What do you have for CCc1c2c(nc3ccccc13)-c1cc3c(c(=O)n1C2)COC(=O)[C@@]3(CC)OC(=O)[C@@H](NC(=O)[C@@H]1CCCN1C(=O)[C@H](CC(=O)[O-])NC(=O)CCOCCOCCOCCNC(=O)[C@H](CCCCNC(=O)CCOCCOCCOCCNC(=O)CCC(=O)Nc1cccc2c(C(=O)NCC(=O)N3CC(F)(F)C[C@H]3C#N)ccnc12)NC(=O)CCOCCOCCOCCNC(=O)CCC(=O)Nc1cccc2c(C(=O)NCC(=O)N3CC(F)(F)C[C@H]3C#N)ccnc12)C(C)C.[Na+] [Compound 20] ?
Result string: 0.5 to 1 h

Query string: What do you have for CCCNC(=O)Nc1cccc(S(=O)(=O)Nc2cccc([C@@H](CC(=O)O)NC(=O)Nc3ccc(NC(=O)NCCOCCOCCOCCC(=O)NCCCC[C@H](NC(=O)CCOCCOCCOCCNC(=O)Nc4ccc(NC(=O)N[C@H](CC(=O)O)c5cccc(NS(=O)(=O)c6cccc(NC(=O)NCCC)c6)c5)cc4)C(=O)NCCOCCOCCOCCC(=O)N[C@@H](CC(N)=O)C(=O)N4CCC[C@H]4C(=O)N[C@H](C(=O)NCCCN(C(=O)CO)[C@@H](c4cc(-c5cc(F)ccc5F)cn4Cc4ccccc4)C(C)(C)C)C(C)C)cc3)c2)c1 [Compound 18] ?
Result string: 10 to 40 h

----------
PROTOCOL_DETAILS: Pharmacokinetics in rat after intravenous administration
Type: in vivo
RUN_PARAMETERS: plasma, male rats, intravenous bolus 0.5 mg/kg, read-out: VSS
Please provide measured Vd for the entries that follow.

Query string: // query Vd value for entry `CCc1c2c(nc3ccccc13)-c1cc3c(c(=O)n1C2)COC(=O)[C@@]3(CC)OC(=O)[C@@H](NC(=O)[C@@H]1CCCN1C(=O)[C@H](CC(=O)O)NC(=O)CCOCCOCCOCCNC(=O)CCC(=O)Nc1cccc2c(C(=O)NCC(=O)N3CC(F)(F)C[C@H]3C#N)ccnc12)C(C)C`
Result string: 0.3 to 0.9 L/kg

Query string: What do you have for `CCc1c2c(nc3ccccc13)-c1cc3c(c(=O)n1C2)COC(=O)[C@@]3(CC)OC(=O)[C@@H](NC(=O)[C@@H]1CCCN1C(=O)[C@H](CC(=O)[O-])NC(=O)CCOCCOCCOCCNC(=O)[C@H](CCCCNC(=O)CCOCCOCCOCCNC(=O)CCC(=O)Nc1cccc2c(C(=O)NCC(=O)N3CC(F)(F)C[C@H]3C#N)ccnc12)NC(=O)CCOCCOCCOCCNC(=O)CCC(=O)Nc1cccc2c(C(=O)NCC(=O)N3CC(F)(F)C[C@H]3C#N)ccnc12)C(C)C.[Na+]` ?
Result string: 0.1 to 0.3 L/kg

Query string: What do you have for `CCCNC(=O)Nc1cccc(S(=O)(=O)Nc2cccc([C@@H](CC(=O)O)NC(=O)Nc3ccc(NC(=O)NCCOCCOCCOCCC(=O)N[C@@H](CC(=O)O)C(=O)N4CCC[C@H]4C(=O)N[C@H](C(=O)N[C@@H](CCN(C(=O)CO)[C@@H](c4cc(-c5cc(F)ccc5F)cn4Cc4ccccc4)C(C)(C)C)C(=O)NC)C(C)C)cc3)c2)c1` ?
Result string: 0.01 to 0.1 L/kg

----------
Please provide measured Vd for the entries that follow.
PROTOCOL_DETAILS: Pharmacokinetics in rat after intravenous administration
Format: in vivo
RUN_PARAMETERS: plasma, male rats, intravenous bolus 0.5 mg/kg, read-out: VSS

Query string: // query Vd value for entry CCCNC(=O)Nc1cccc(S(=O)(=O)Nc2cccc([C@@H](CC(=O)O)NC(=O)Nc3ccc(NC(=O)NCCOCCOCCOCCC(=O)NCCCC[C@H](NC(=O)CCOCCOCCOCCNC(=O)Nc4ccc(NC(=O)N[C@H](CC(=O)O)c5cccc(NS(=O)(=O)c6cccc(NC(=O)NCCC)c6)c5)cc4)C(=O)NCCOCCOCCOCCC(=O)N[C@@H](CC(=O)O)C(=O)N4CCC[C@H]4C(=O)N[C@H](C(=O)N[C@@H](CCN(C(=O)CO)[C@@H](c4cc(-c5cc(F)ccc5F)cn4Cc4ccccc4)C(C)(C)C)C(=O)NC)C(C)C)cc3)c2)c1 [Compound 27]
Result string: 0.01 to 0.1 L/kg

Query string: What do you have for CCc1c2c(nc3ccccc13)-c1cc3c(c(=O)n1C2)COC(=O)[C@@]3(CC)OC(=O)[C@@H](NC(=O)[C@@H]1CCCN1C(=O)[C@H](CC(=O)[O-])NC(=O)CCOCCOCCOCCNC(=O)CCCC(=O)NCCCC[C@H](NC(=O)CCOCCOCCOCCNC(=O)CCC(=O)Nc1cccc2c(C(=O)NCC(=O)N3CC(F)(F)C[C@H]3C#N)ccnc12)C(=O)NCCCCCCCC(=O)[O-])C(C)C.[Na+].[Na+] [Compound 21] ?
Result string: 0.1 to 0.3 L/kg

----------
PROTOCOL_DETAILS: Pharmacokinetics in rat after intravenous administration
Type: in vivo
RUN_PARAMETERS: plasma, male rats, intravenous bolus 0.5 mg/kg
METRIC: AUC

Query string: // query AUC value for entry `CCc1c2c(nc3ccccc13)-c1cc3c(c(=O)n1C2)COC(=O)[C@@]3(CC)OC(=O)[C@@H](NC(=O)[C@@H]1CCCN1C(=O)[C@H](CC(=O)O)NC(=O)CCOCCOCCOCCNC(=O)NCCCC[C@H](NC(=O)N[C@@H](CCC(=O)O)C(=O)O)C(=O)O)C(C)C`
Result string: 1000 to 10000 ng·h/mL

Query string: What do you have for CCCNC(=O)Nc1cccc(S(=O)(=O)Nc2cccc([C@@H](CC(=O)O)NC(=O)Nc3ccc(NC(=O)NCCOCCOCCOCCC(=O)N[C@@H](CC(=O)O)C(=O)N4CCC[C@H]4C(=O)N[C@H](C(=O)O[C@@H](c4ccccc4)[C@@H](C)NC(=O)[C@H](C)C(OC)[C@@H]4CCCN4C(=O)CC(OC)[C@H]([C@@H](C)CC)N(C)C(=O)[C@@H](NC(=O)[C@@H](NC)C(C)C)C(C)C)C(C)C)cc3)c2)c1 (stereo partly drawn) ?
Result string: 1000 to 10000 ng·h/mL

Query string: What do you have for `CCCNC(=O)Nc1cccc(S(=O)(=O)Nc2cccc([C@@H](CC(=O)O)NC(=O)Nc3ccc(NC(=O)NCCOCCOCCOCCC(=O)N[C@@H](CC(N)=O)C(=O)N4CCC[C@H]4C(=O)N[C@H](C(=O)NCCCN(C(=O)CO)[C@@H](c4cc(-c5cc(F)ccc5F)cn4Cc4ccccc4)C(C)(C)C)C(C)C)cc3)c2)c1` ?
Result string: 1000 to 10000 ng·h/mL
